Read-out: Intercellular Adhesion Molecule 1 (ICAM1), ICAM1 (gene 3383)
Protocol Notes: BSK_KF3CT_ICAM1: BioMAP Diversity Plus: KF3CT Assay for Intercellular Adhesion Molecule 1 (ICAM1) Biomarker Activity (AID 2283067)
Test Parameters: primary human keratinocytes with fibroblasts; actives raise or lower the signal
Active and inactive are the calls of the source. How the source made its calls: active means hit-call score of the fitted dose curve at least 0.9, where 1 is the maximum; inactive means score below 0.9.
Readout Label: AC50

{"Compound": "ClC1=C(Cl)C2(Cl)C3C(Cl)C=CC3C1(Cl)C2(Cl)Cl (stereo unspecified)", "Result Value": "30.2 µM (active)"}
{"Compound": "CCC(C)c1ccc(O)cc1 (stereo unspecified)", "Result Value": "inactive"}
{"Compound": "ClCCOCCCl", "Result Value": "inactive"}
{"Compound": "COP(=S)(OC)SCN1C(=O)c2ccccc2C1=O", "Result Value": "inactive"}
{"Compound": "CC(C)COC(=O)c1ccccc1C(=O)OCC(C)C", "Result Value": "inactive"}
{"Compound": "Cc1cc(N=Nc2ccccc2C)ccc1N", "Result Value": "31.8 µM (active)"}

###

Read-out: Cytochrome P450 (CYP1A1), CYP1A1 (gene 1543)
Protocol Notes: LTEA_HepaRG_CYP1A1: Life Technologies and Expression Analysis (LTEA) Assay for Cytochrome P450 (CYP1A1) using HepaRG (AID 2283454)
Test Parameters: mRNA level, 48 h; actives raise or lower the signal
Description: LTEA_HepaRG is a cell based, multiplexed-readout assay that uses HepaRG, a human liver cell line, with measurements taken at 48 hours after chemical dosing on a 96-well plate.LTEA_HepaRG_CYP1A1 is one of 102 assay component(s) measured in the LTEA HepaRG cell culture assay. It is a marker of NR mediated metabolism.Data from the assay component LTEA_HepaRG_CYP1A1 was analyzed into 1 endpoint. […]
Activity calls are given as the source filed them. How the source made its calls: active means hit-call score of the fitted dose curve at least 0.9, where 1 is the maximum; inactive means score below 0.9.
Classes used: true = active, false = inactive

{"Compound": "Nc1ccc(N=Nc2ccccc2)cc1", "Label Value": "true"}
{"Compound": "CCCCC(CC)COC(=O)c1ccc(C(=O)OCC(CC)CCCC)c(C(=O)OCC(CC)CCCC)c1 (stereo not given)", "Label Value": "true"}
{"Compound": "O=C(Oc1ccc(Br)cc1)N1CCN2CCC1CC2", "Label Value": "true"}
{"Compound": "COP(=S)(OC)SCN1C(=O)c2ccccc2C1=O", "Label Value": "true"}
{"Compound": "c1ccc(C2CO2)cc1 (stereo not given)", "Label Value": "false"}
{"Compound": "CCC(C)c1ccc(O)cc1 (stereo not given)", "Label Value": "false"}
{"Compound": "CC(C)(C)OOC(C)(C)CCC(C)(C)OOC(C)(C)C", "Label Value": "true"}
{"Compound": "N#CC(Br)(Br)C(N)=O", "Label Value": "false"}
{"Compound": "[Cl-].[Cl-].[Hg+2]", "Label Value": "true"}
{"Compound": "C[N+](C)(C)CC1CO1 (stereo not given)", "Label Value": "true"}

###

Read-out: Cyclin D1 (CCND1), CCND1 (gene 595)
Protocol Notes: LTEA_HepaRG_CCND1: Life Technologies and Expression Analysis (LTEA) Assay for Cyclin D1 (CCND1) using HepaRG (AID 2283451)
Test Parameters: mRNA level, 48 h; actives raise or lower the signal
Calls of active or inactive are those of the source. The calls were made as follows: active = hit-call score of the fitted dose curve at least 0.9, where 1 is the maximum; inactive = score below 0.9.
Classes used: 1.0 for active, 0.0 for inactive

{"Substance Smiles": "O=C(N[C@H](c1ccccc1)[C@@H]1CN2CCC1CC2)c1c(Cl)ccc(C(F)(F)F)c1Cl", "Label Value": 1.0}
{"Substance Smiles": "CCOC(=O)[C@]1(c2ccccc2)Oc2ccccc2[C@@H]1N", "Label Value": 1.0}
{"Substance Smiles": "CCC12COCN1COC2", "Label Value": 0.0}
{"Substance Smiles": "CCN(CC)CCO", "Label Value": 0.0}
{"Substance Smiles": "Clc1ccc(C(c2ccc(Cl)cc2)C(Cl)Cl)cc1", "Label Value": 0.0}
